test system: phospho-serine 2056 DNA-PK in HCT116 cells; assay: DNA-PK phosphorylation at serine 2056 (cellular), ELISA in bleomycin-treated HCT116 cells; assay type: cell-based; details: Homo sapiens, HCT-116, phospho-serine 2056 DNA-PK, bleomycin-treated HCT116 cells; class symbols A-D; read-out: IC50 pDNA-PK
METRIC_NAME: IC50

Use these answered entries as a reference point.
* CN(C)CCOc1ccc(C(O)c2ccc(F)c(-c3ncnc4cc(N5CCOCC5)ccc34)c2)nn1 (stereo not shown) [Example 133] | 5 to 10 µM
* OC(c1cccc(-c2ncnc3cc(N4CCOCC4)ccc23)c1)c1nccs1 (stereo not shown) [Example 150] | 5 to 10 µM
* COC(c1ccc(F)c(-c2ncnc3cc(N4CCOCC4)ccc23)c1)c1nccs1 (stereo not shown) [Example 177] | 10 to 30 µM

Turning to the following molecule.
For this molecule ( COc1ccc([C@@H](O)c2cc(-c3ncnc4cc(N5CCOCC5)ccc34)c(F)cc2Cl)nn1 [Example 136] ), measured IC50 is < 0.5 µM

* * *

System: phospho-serine 2056 DNA-PK in HCT116 cells
Assay: DNA-PK phosphorylation at serine 2056 (cellular), ELISA in bleomycin-treated HCT116 cells
Assay type: cell-based
Conditions: Homo sapiens, HCT-116, phospho-serine 2056 DNA-PK, bleomycin-treated HCT116 cells; class symbols A-D; read-out: IC50 pDNA-PK
Protocol: HCT116 cells were cultivated at 37° C. and 10% CO2 in MEM alpha medium with 10% of foetal calf serum and 2 mM glutamine. The cells were detached from the base of the culture vessels with the aid of trypsin/EDTA, centrifuged off in centrifuge tubes, taken up in fresh medium, and the cell density was determined. […] The development of the enzymatic reaction was carried out with the aid of a chemiluminescent reagent, the chemiluminescence was measured with the aid of a Mithras LB940. […]
Provide the reported IC50 of each item.

* OCc1csc(C(O)c2cc(-c3ncnc4cc(N5C6CCC5COC6)ccc34)c(F)cc2Cl)n1 (stereo not drawn) | 10 to 30 µM
* Nc1nccnc1C(O)c1cc(-c2ncnc3cc(N4CCOCC4)ccc23)c(F)cc1Cl (stereo not drawn) | 0.5 to 5 µM
* OCCNc1nccnc1C(O)c1ccc(F)c(-c2ncnc3cc(N4CCOCC4)ccc23)c1 (stereo not drawn) | 5 to 10 µM
* Fc1ccc(C(OC(F)F)c2nccs2)cc1-c1ncnc2cc(N3CCOCC3)ccc12 (stereo not drawn) | 10 to 30 µM
* COc1nnc(C(O)c2cc(-c3ncnc4cc(N5CCOCC5)ccc34)c(F)cc2Cl)cc1C (stereo not drawn) | 0.5 to 5 µM

Provide each entry's IC50 from the list below.
1. OC(c1nccs1)c1cc(-c2ncnc3cc(N4CCOCC4)ccc23)ccc1F (stereo not drawn)
2. CC(C)n1cc(C(O)c2ccc(F)c(-c3ncnc4cc(N5CCOCC5)ccc34)c2)cn1 (stereo not drawn)
3. COc1ccc(C(O)c2cc(-c3ncnc4cc(N5CCOCC5)ccc34)c(F)cc2Cl)nn1 (stereo not drawn)
4. OCCOc1ccc(C(O)c2cc(-c3ncnc4cc(N5CCOCC5)ccc34)c(F)cc2Cl)nn1 (stereo not drawn)

OUTPUT:
1: 5 to 10 µM; 2: 5 to 10 µM; 3: 0.5 to 5 µM; 4: 0.5 to 5 µM

* * *

test system: phospho-serine 2056 DNA-PK in HCT116 cells; test: DNA-PK phosphorylation at serine 2056 (cellular), ELISA in bleomycin-treated HCT116 cells; format: cell-based; conditions: Homo sapiens, HCT-116, 6 h, cellular; HCT116 cells, 10 μM bleomycin, six hours; read-out: IC50 pDNA-PK
METRIC_NAME: IC50

Use these answered entries as a reference point.
* Cc1nccnc1[C@@H](O)c1ccc(F)c(-c2ncnc3cc(N4CCOCC4)ccc23)c1 [Example 82] | 0.5 to 5 µM
* CNC(=O)c1ccc(C(O)c2cc(-c3ncnc4cc(N5CCOCC5)ccc34)c(F)cc2Cl)nn1 (stereo not shown) [Example 43] | 0.5 to 5 µM
* OC(c1ccc(F)c(-c2ncnc3cc(N4CCOCC4)ccc23)c1)c1nc(Cl)cnc1Cl (stereo not shown) [Example 35] | < 0.5 µM
* O=c1ccc(C(O)c2cc(-c3ncnc4cc(N5CCOCC5)ccc34)c(F)cc2Cl)n[nH]1 (stereo not shown) [Example 92] | < 0.5 µM
* COc1ccc(C(O)c2ccc(F)c(-c3ncnc4cc(N5CCOCC5)ccc34)c2)nn1 (stereo not shown) [Example 74] | < 0.5 µM
* NCCn1nc(C(O)c2cc(-c3ncnc4cc(N5CCOCC5)ccc34)c(F)cc2Cl)ccc1=O (stereo not shown) [Example 94] | 10 to 30 µM

Provide each entry's IC50 from the list below.
1. O=c1[nH]ccnc1C(O)c1ccc(F)c(-c2ncnc3cc(N4CCOCC4)ccc23)c1 (stereo not shown) [Example 5]
2. OC(c1ccc(F)c(-c2ncnc3cc(N4CCOCC4)ccc23)c1)c1c(F)cncc1Cl (stereo not shown) [Example 77]
3. O=C(O)c1ccc(C(O)c2cc(-c3ncnc4cc(N5CCOCC5)ccc34)c(F)cc2Cl)nn1 (stereo not shown) [Example 55]
4. COc1cc(Cl)nnc1C(O)c1cc(-c2ncnc3cc(N4CCOCC4)ccc23)c(F)cc1Cl (stereo not shown) [Example 8]

OUTPUT:
["10 to 30 µM", "< 0.5 µM", "10 to 30 µM", "0.5 to 5 µM"]
